- System: Bacillus subtilis
- Assay overview: Antimicrobial activity against Bacillus subtilis 2250 at 35 degC after 18 to 24 hrs by NCCLS method based antimicrobial assay
- Format: functional
The source made the active and inactive calls. No cut-off for these calls is given here.
Quantity kind: MIC

Worked cases, MIC given:
O=[N+]([O-])c1ccc(-c2csc(N/N=C(/Cn3nnc4ccccc43)c3ccc(Br)cc3)n2)cc1 ... inactive
Fc1ccc(-c2csc(N/N=C(/Cn3nnc4ccccc43)c3ccc(Cl)cc3)n2)cc1 ... 128 µg/mL
Clc1ccc(-c2csc(N/N=C(/Cn3nnc4ccccc43)c3ccc(Br)cc3)n2)cc1 ... inactive
Fc1ccc(-c2csc(N/N=C(/Cn3nnc4ccccc43)c3cc(C(F)(F)F)cc(C(F)(F)F)c3)n2)cc1 ... inactive
O=[N+]([O-])c1ccc(/C(Cn2nnc3ccccc32)=N\Nc2nc(-c3cc(C(F)(F)F)cc(C(F)(F)F)c3)cs2)cc1 ... inactive

Give MIC (Bacillus subtilis) of the following compound: Clc1ccc(/C(Cn2nnc3ccccc32)=N\Nc2nc(-c3ccc(Cl)cc3)cs2)cc1 32 µg/mL

* * *

- Tested on: Aspergillus niger
- Assay overview: Antimicrobial activity against Aspergillus niger 545 at 128 ug/disc at 37 degC after 24 to 72 hrs by agar-well diffusion assay
- Assay type: functional
- Measurement context: read-out: DIZ
Quantity kind: zone of inhibition at 128 µg/disc (mm)
Entry rule: numbers only, all in mm.

Clc1ccc(-c2csc(N/N=C(/Cn3nnc4ccccc43)c3ccc(Br)cc3)n2)cc1 ... 15.2
Fc1ccc(/C(Cn2nnc3ccccc32)=N\Nc2nc(-c3ccc(F)cc3)cs2)cc1 ... 19.1
Fc1ccc(-c2csc(N/N=C(/Cn3nnc4ccccc43)c3ccc(Br)cc3)n2)cc1 ... 17.6
Fc1ccc(/C(Cn2nnc3ccccc32)=N\Nc2nc(-c3ccc(Cl)cc3)cs2)cc1 ... 21.4
FC(F)(F)c1cc(/C(Cn2nnc3ccccc32)=N\Nc2nc(-c3ccc(Cl)cc3)cs2)cc(C(F)(F)F)c1 ... 19.7

Could you share which zone of inhibition at 128 µg/disc value was measured for O=[N+]([O-])c1ccc(-c2csc(N/N=C(/Cn3nnc4ccccc43)c3ccc(F)cc3)n2)cc1 ? 16.2

And for O=[N+]([O-])c1ccc(-c2csc(N/N=C(/Cn3nnc4ccccc43)c3ccc(Cl)cc3)n2)cc1 ? 13.6

What about Fc1ccc(-c2csc(N/N=C(/Cn3nnc4ccccc43)c3cc(C(F)(F)F)cc(C(F)(F)F)c3)n2)cc1 ? 16.8

Ok, now O=[N+]([O-])c1ccc(/C(Cn2nnc3ccccc32)=N\Nc2nc(-c3ccc(F)cc3)cs2)cc1 17.8

* * *

- System: Bacillus subtilis
- Assay overview: Antimicrobial activity against Bacillus subtilis 2250 at 35 degC after 18 to 24 hrs by NCCLS method based antimicrobial assay
- Format: functional
Active and inactive are the calls of the source. No cut-off for these calls is given here.
Quantity kind: MIC

O=[N+]([O-])c1ccc(/C(Cn2nnc3ccccc32)=N\Nc2nc(-c3ccc(Cl)cc3)cs2)cc1 ... inactive
FC(F)(F)c1cc(-c2csc(N/N=C(/Cn3nnc4ccccc43)c3ccc(Cl)cc3)n2)cc(C(F)(F)F)c1 ... inactive
O=[N+]([O-])c1ccc(/C(Cn2nnc3ccccc32)=N\Nc2nc(-c3ccc([N+](=O)[O-])cc3)cs2)cc1 ... inactive
Fc1ccc(/C(Cn2nnc3ccccc32)=N\Nc2nc(-c3cc(C(F)(F)F)cc(C(F)(F)F)c3)cs2)cc1 ... 32 µg/mL

* * *

- Test system: Escherichia coli
- Assay overview: Antimicrobial activity against Escherichia coli 2109 at 35 degC after 18 to 24 hrs by NCCLS method based antimicrobial assay
- Format: functional
- Measurement context: read-out: MBC99.9
Quantity kind: MBC (µg/mL)
Give the value in µg/mL but do not write µg/mL after it.

Consider the following illustrative entries.
FC(F)(F)c1cc(/C(Cn2nnc3ccccc32)=N\Nc2nc(-c3ccc(Cl)cc3)cs2)cc(C(F)(F)F)c1 ... 256
Clc1ccc(-c2csc(N/N=C(/Cn3nnc4ccccc43)c3ccc(Br)cc3)n2)cc1 ... 128
FC(F)(F)c1cc(-c2csc(N/N=C(/Cn3nnc4ccccc43)c3ccc(Cl)cc3)n2)cc(C(F)(F)F)c1 ... 64
O=[N+]([O-])c1ccc(/C(Cn2nnc3ccccc32)=N\Nc2nc(-c3ccc([N+](=O)[O-])cc3)cs2)cc1 ... 256
O=C(N[C@H](CO)[C@H](O)c1ccc([N+](=O)[O-])cc1)C(Cl)Cl ... 32

GET /values?readout=MBC&item= Fc1ccc(-c2csc(N/N=C(/Cn3nnc4ccccc43)c3ccc(Br)cc3)n2)cc1 128

Same again, this time with O=[N+]([O-])c1ccc(/C(Cn2nnc3ccccc32)=N\Nc2nc(-c3cc(C(F)(F)F)cc(C(F)(F)F)c3)cs2)cc1 256

Next: O=[N+]([O-])c1ccc(-c2csc(N/N=C(/Cn3nnc4ccccc43)c3cc(C(F)(F)F)cc(C(F)(F)F)c3)n2)cc1 256

* * *

- Test system: Staphylococcus aureus
- Assay overview: Antimicrobial activity against Staphylococcus aureus 2079 at 128 ug/disc at 35 degC after 24 hrs by agar-well diffusion assay
- Type: functional
- Measurement context: Staphylococcus aureus, 2079, 24 h; read-out: DIZ
Quantity kind: zone of inhibition at 128 µg/disc (mm)
Kindly answer with a numeric value in mm, unit omitted.

Fc1ccc(-c2csc(N/N=C(/Cn3nnc4ccccc43)c3cc(C(F)(F)F)cc(C(F)(F)F)c3)n2)cc1 ... 24.3

Any idea what zone of inhibition at 128 µg/disc came out for Clc1ccc(/C(Cn2nnc3ccccc32)=N\Nc2nc(-c3ccc(Cl)cc3)cs2)cc1 on Staphylococcus aureus? 27.9

Fc1ccc(/C(Cn2nnc3ccccc32)=N\Nc2nc(-c3ccc(Cl)cc3)cs2)cc1 ? 25.9

Try this compound too: Fc1ccc(/C(Cn2nnc3ccccc32)=N\Nc2nc(-c3cc(C(F)(F)F)cc(C(F)(F)F)c3)cs2)cc1 19.2

Please answer likewise for Brc1ccc(/C(Cn2nnc3ccccc32)=N\Nc2nc(-c3ccc(Br)cc3)cs2)cc1 23.4

Item: O=[N+]([O-])c1ccc(/C(Cn2nnc3ccccc32)=N\Nc2nc(-c3ccc(F)cc3)cs2)cc1 26.5

Next record, please: Fc1ccc(-c2csc(N/N=C(/Cn3nnc4ccccc43)c3ccc(Cl)cc3)n2)cc1 24.7

What about this compound? O=[N+]([O-])c1ccc(/C(Cn2nnc3ccccc32)=N\Nc2nc(-c3ccc(Br)cc3)cs2)cc1 22.6

Also need Fc1ccc(/C(Cn2nnc3ccccc32)=N\Nc2nc(-c3ccc(F)cc3)cs2)cc1 , thanks. 20.1

* * *

- Tested on: Staphylococcus aureus
- Assay overview: Antimicrobial activity against Staphylococcus aureus 2079 at 35 degC after 18 to 24 hrs by NCCLS method based antimicrobial assay
- Assay type: functional
Calls of active or inactive are those of the source. No cut-off for these calls is given here.
Quantity kind: MIC

FC(F)(F)c1cc(/C(Cn2nnc3ccccc32)=N\Nc2nc(-c3ccc(Br)cc3)cs2)cc(C(F)(F)F)c1 ... inactive
O=[N+]([O-])c1ccc(/C(Cn2nnc3ccccc32)=N\Nc2nc(-c3ccc(F)cc3)cs2)cc1 ... 32 µg/mL
Brc1ccc(/C(Cn2nnc3ccccc32)=N\Nc2nc(-c3ccc(Br)cc3)cs2)cc1 ... 32 µg/mL
Fc1ccc(/C(Cn2nnc3ccccc32)=N\Nc2nc(-c3ccc(Cl)cc3)cs2)cc1 ... 32 µg/mL
FC(F)(F)c1cc(-c2csc(N/N=C(/Cn3nnc4ccccc43)c3ccc(Cl)cc3)n2)cc(C(F)(F)F)c1 ... inactive
O=[N+]([O-])c1ccc(-c2csc(N/N=C(/Cn3nnc4ccccc43)c3cc(C(F)(F)F)cc(C(F)(F)F)c3)n2)cc1 ... inactive
O=[N+]([O-])c1ccc(-c2csc(N/N=C(/Cn3nnc4ccccc43)c3ccc(F)cc3)n2)cc1 ... inactive

Entry Fc1ccc(/C(Cn2nnc3ccccc32)=N\Nc2nc(-c3cc(C(F)(F)F)cc(C(F)(F)F)c3)cs2)cc1 : reported MIC = ? 128 µg/mL

* * *

- Test system: Aspergillus niger
- Assay overview: Ratio of MFC99.9 to MIC90 for Aspergillus niger 545 at 35 degC after 48 hrs by CLSI method based antimicrobial assay
- Type: functional
Quantity kind: Ratio
Answer with a number only.

Fc1ccc(/C(Cn2nnc3ccccc32)=N\Nc2nc(-c3ccc(F)cc3)cs2)cc1 ... 4
Fc1ccc(-c2csc(N/N=C(/Cn3nnc4ccccc43)c3ccc(Br)cc3)n2)cc1 ... 2
Clc1ccc(/C(Cn2nnc3ccccc32)=N\Nc2nc(-c3ccc(Cl)cc3)cs2)cc1 ... 1
Fc1ccc(/C(Cn2nnc3ccccc32)=N\Nc2nc(-c3ccc(Cl)cc3)cs2)cc1 ... 1
Clc1ccc(/C(Cn2nnc3ccccc32)=N\Nc2nc(-c3ccc(Br)cc3)cs2)cc1 ... 1

Let us examine a further case.
I would be grateful if you could share the reported Ratio for O=[N+]([O-])c1ccc(-c2csc(N/N=C(/Cn3nnc4ccccc43)c3ccc(Cl)cc3)n2)cc1 . 2

Data origin, for the record: ChEMBL document CHEMBL2021913
